Quick reference for logD among some molecules
Measurement notes: Log D7.4 shake-flask octanol-water
Format: physicochemical
Condition label: pH 7.4

{"Test smiles": "Cc1cnc(Nc2ccnc3cc(-c4cnc(N5CCN(C)CC5)nc4)ccc23)cn1", "logD": 3.6}
{"Test smiles": "O=S(=O)(c1ccc(-c2ccc3nccc(Nc4ncccn4)c3c2)cc1)N1CCOCC1", "logD": 3.7}
{"Test smiles": "COc1ccc(NC(=O)c2ccc(-c3ccc(S(=O)(=O)N4CCN(C)CC4)cc3)cc2O)cc1Cl", "logD": 3.9}
